# TARGET SYSTEM: Yer064c (UniProt P40041)
# Sequence: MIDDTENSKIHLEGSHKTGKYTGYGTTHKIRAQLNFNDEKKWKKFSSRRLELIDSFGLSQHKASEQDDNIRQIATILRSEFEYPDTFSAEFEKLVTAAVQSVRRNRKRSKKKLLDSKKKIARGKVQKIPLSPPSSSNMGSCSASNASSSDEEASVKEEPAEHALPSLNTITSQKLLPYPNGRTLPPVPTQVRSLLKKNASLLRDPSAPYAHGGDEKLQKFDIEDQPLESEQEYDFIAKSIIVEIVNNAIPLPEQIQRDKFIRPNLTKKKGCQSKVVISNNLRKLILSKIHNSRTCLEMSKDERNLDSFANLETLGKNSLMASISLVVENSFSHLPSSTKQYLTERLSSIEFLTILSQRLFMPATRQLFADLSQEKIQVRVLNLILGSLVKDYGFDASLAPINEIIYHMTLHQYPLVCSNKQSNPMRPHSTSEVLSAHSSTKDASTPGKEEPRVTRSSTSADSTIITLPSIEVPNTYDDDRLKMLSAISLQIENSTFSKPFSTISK
# TEST DETAILS: PBM E-score (8-mer binding enrichment) (E-score (-0.5 to 0.5)); higher = stronger / more preferred TF binding
# MEASUREMENT CONTEXT: protein concentration: 200 nM; construct: GST-full length
Over roughly 33,000 sequences, “E-score (-0.5 to 0.5)” has its median near -0.036; the highest 2% begin near 0.37. The list comes from a sample in which the highest values are over-represented; it also holds close analogues and randomly drawn sequences.
MEASURE: PBM E-score
Numbers only.

| SEQ STRING | VAL |
| --- | --- |
| CGTAATCC | -0.0532 |
| CTACTCAA | 0.162 |
| AGTCAACG | 0.443 |
| GGTCAACC | -0.0162 |
| ACCAACTG | -0.097 |
| ACGTCAAC | 0.0642 |
| TTGTCAAA | 0.0143 |
| AAGTCAAG | 0.283 |
| CGTCAACC | -0.225 |
| TGACTCAA | 0.492 |

State the recorded PBM E-score for every item in the following list.
1. CGTAATCA
2. ACACATCG

0.42
0.158

State the recorded PBM E-score for every item in the following list.
1. ACTCAACT
2. CGTCAACG
3. AACGTATT
4. GGTAATGA

1. 0.337
2. 0.0184
3. -0.12
4. 0.189

State the recorded PBM E-score for every item in the following list.
1. GCGTCAAC
2. CCTCATCG
3. GGTAATCA
4. CAGTCAAC

-0.156
-0.207
0.433
0.36

State the recorded PBM E-score for every item in the following list.
1. GGACTCAA
2. GGTAATTA

[0.409, 0.0662]
